Values compiled from patent US6201122A.

experiment: surface tension of aqueous solutions (du Nouy tensiometer); format: physicochemical; settings: 100 ppm (0.01% solids) in deionized water, diluted from 10% solids in water/isopropyl alcohol
Outcome measure: Surface tension (dynes/cm) at 100 ppm
Provide only the numeric value, understood in dynes/cm.

>>> recorded_number("CC(C)(CS(=O)(=O)O)NC(=O)CCN1CCN(S(=O)(=O)C(F)(F)C(F)(F)C(F)(F)C(F)(F)C(F)(F)C(F)(F)C(F)(F)C(F)(F)F)CC1 [Example 3]")
20.3
>>> recorded_number("O=C(O)CCNCCNS(=O)(=O)C(F)(F)C(F)(F)C(F)(F)C(F)(F)C(F)(F)C(F)(F)C(F)(F)C(F)(F)F [Example 2]")
16.8
>>> recorded_number("CC(C)(CS(=O)(=O)O)NC(=O)CCNCCNS(=O)(=O)C(F)(F)C(F)(F)C(F)(F)C(F)(F)C(F)(F)C(F)(F)C(F)(F)C(F)(F)F [Example 1]")
18.3

Indicate the recorded Surface tension (dynes/cm) at 100 ppm value for this compound: CCN(CCC(=O)O)S(=O)(=O)C(F)(F)C(F)(F)C(F)(F)C(F)(F)C(F)(F)C(F)(F)C(F)(F)C(F)(F)F [Comparative Example C6]
19.9

// fetch Surface tension (dynes/cm) at 100 ppm given entry CCN(CC(=O)O)S(=O)(=O)C(F)(F)C(F)(F)C(F)(F)C(F)(F)C(F)(F)C(F)(F)C(F)(F)C(F)(F)F [Comparative Example C4]
19.7
